Reference for the values: paper PMC9482650

Target: T1, DFNB31_1, Q9P202
T1 sequence (Q9P202 135-233, limits assumed, looked up): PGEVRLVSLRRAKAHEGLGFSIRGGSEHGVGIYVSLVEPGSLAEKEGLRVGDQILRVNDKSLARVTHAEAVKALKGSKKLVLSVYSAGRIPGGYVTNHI
Test: holdup assay
Design: key: below the threshold = too weak to quantify, mostly under pKd 3.1 to 4
Details: plain residues with an end cap or a label only (N-terminal biotin on a linker: ado-ado)
observable: pKd

>>> measured("TACCHSETVV [TGFA, P01135]")
4.02
>>> measured("FNSYSLTGYV [CLDN2, P57739]")
"below the threshold"
>>> measured("YLEPVLSSEL [ATP2A2, P16615;P16615-3]")
"below the threshold"
>>> measured("YNNCLEILRV [DCAF7, P61962]")
"below the threshold"
